tested on: TK-10 renal; assay: NCI tumour cell line growth inhibition, 48 h

[
  {
    "COMPOUND": "COc1ccccc1N=N/C(=N\\NC(=O)c1ccc(C)cc1)c1ccc(N(CCC#N)CCC#N)cc1C",
    "TGI": "> 100 µM"
  },
  {
    "COMPOUND": "COc1ccc(/C=C2/NC(=S)N=C2Cl)cc1",
    "TGI": "> 100 µM"
  },
  {
    "COMPOUND": "CC1(C)C2CC3C4CC5(Nc6ccccc6C5N41)[C@]3(C)CC2=O (stereo partly drawn)",
    "TGI": "> 50 µM"
  },
  {
    "COMPOUND": "CCc1cc2ncc(CN3CCN(c4ccc(C(=O)NC)nc4)CC3)cc2[nH]c1=O",
    "TGI": "> 100 µM"
  },
  {
    "COMPOUND": "Nc1c(-c2ccccc2[N+](=O)[O-])nc2ccccn12",
    "TGI": "> 100 µM"
  },
  {
    "COMPOUND": "C=CC(Br)(CBr)CCC(Br)C(C)(C)Cl (stereo not drawn)",
    "TGI": "6.33 µM"
  },
  {
    "COMPOUND": "CCCCN[C@H]1C2C3CC4C5CC(C42)C1(C)C53 (stereo partly drawn)",
    "TGI": "> 100 µM"
  },
  {
    "COMPOUND": "CCN(CC)CCN(Cc1ccc(F)cc1)c1ccc(CO)c(Cl)c1",
    "TGI": "22.2 µM"
  },
  {
    "COMPOUND": "COC(=O)C(CBr)CBr",
    "TGI": "10.8 µM"
  },
  {
    "COMPOUND": "NC(N)=Nc1nc2ccc([N+](=O)[O-])cc2[nH]1",
    "TGI": "> 100 µM"
  },
  {
    "COMPOUND": "Cc1cccc(N2C(=O)C(=O)C(c3nc4ccccc4s3)/C(=N/NC(=S)NN)C2=O)c1C (stereo not drawn)",
    "TGI": "> 100 µM"
  },
  {
    "COMPOUND": "N=C(N)c1ccc(NCCOCCNc2ccc(C(=N)N)cc2)cc1",
    "TGI": "> 100 µM"
  },
  {
    "COMPOUND": "CN(C)CCn1c(=O)c2ccc3c4c(nn3CCN(C)C)c3cc([N+](=O)[O-])ccc3n(c1=O)c24",
    "TGI": "2.01 µM"
  },
  {
    "COMPOUND": "O=c1[nH]nc(Cn2c3ccc(Br)cc3c3nc4ccccc4nc32)n1C1CCCCC1",
    "TGI": "> 100 µM"
  },
  {
    "COMPOUND": "CC(=O)C1=C(C)N(C)C2(O)C=CC(=O)C3=C(O)c4ccccc4C(=O)C312 (stereo not drawn)",
    "TGI": "20.7 µM"
  },
  {
    "COMPOUND": "NCCCCC(=O)c1cccnc1",
    "TGI": "> 100 µM"
  },
  {
    "COMPOUND": "CCOC(=O)/C=C/[C@H](O)[C@@H](O)/C=C/C(=O)OCC",
    "TGI": "> 100 µM"
  },
  {
    "COMPOUND": "O=C1N[C@@H]2c3c(Br)sc(Br)c3C(=O)[C@@H]2O1",
    "TGI": "10.5 µM"
  },
  {
    "COMPOUND": "CN1CCN(Cc2ccc(NC(=O)c3cncc(C#Cc4cncc5nccnc45)c3)cc2C(F)(F)F)CC1",
    "TGI": "12.8 µM"
  },
  {
    "COMPOUND": "N#Cc1nc(-c2ccccn2)oc1N",
    "TGI": "> 100 µM"
  },
  {
    "COMPOUND": "CC1Cc2cc(O)c(O)cc2-c2cc(O)c(O)cc2CC1C (stereo not drawn)",
    "TGI": "86.4 µM"
  },
  {
    "COMPOUND": "CCOC(=O)c1nc2ccccc2nc1Oc1cc(OC)c(OC)c(OC)c1",
    "TGI": "> 100 µM"
  },
  {
    "COMPOUND": "N#Cc1c(O)cc(=O)n2c1[nH]c1ccccc12",
    "TGI": "> 100 µM"
  }
]
